- measurement.notes: Blood clearance in nude mice
- test.context: mouse, in vivo, half-life (T1/2), blood clearance
assay.readout: half-life
// unit must come after the numeric part

Give the value of half-life reported for the following: CC1(C)C(/C=C/C2=C(Cl)C(=C/C=C3/N(CCCCCC(=O)NCCCCC(NC(=O)C[N+]45CC[N+]6(CC(=O)[O-])CC[N+]7(CC(=O)[O-])CC[N+](CC(=O)O)(CC4)[64Cu-2]765)C(=O)O)c4ccccc4C3(C)C)/CCC2)=[N+](CCCCCC(=O)O)c2ccccc21 (stereo not shown)
4.3 h
